target: hOTC (human ornithine transcarbamylase) (Homo sapiens, UniProt P00480, D263A); experiment: microscale thermophoresis, label-free; type: binding
Sequence (P00480 33-354 D263A): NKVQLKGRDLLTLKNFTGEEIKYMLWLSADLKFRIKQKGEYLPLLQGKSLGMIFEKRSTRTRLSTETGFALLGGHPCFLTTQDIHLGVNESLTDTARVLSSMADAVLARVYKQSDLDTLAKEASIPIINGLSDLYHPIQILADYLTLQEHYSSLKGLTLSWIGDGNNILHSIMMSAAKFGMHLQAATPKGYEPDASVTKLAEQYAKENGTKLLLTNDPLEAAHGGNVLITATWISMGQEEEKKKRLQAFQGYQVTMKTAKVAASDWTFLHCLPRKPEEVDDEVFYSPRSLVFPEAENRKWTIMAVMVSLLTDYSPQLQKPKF
Measurement Type: pKd
Bear in mind: pKd is minus log10 of a mol/L concentration; give just that figure.

Q: Query (compound): NC(=O)OP(=O)(O)O [CP, carbamoyl phosphate] ; field requested: pKd
A: 6.37

----------
target: hOTC (human ornithine transcarbamylase) (Homo sapiens, UniProt P00480, C303A); assay: microscale thermophoresis, label-free
Sequence (P00480 33-354 C303A): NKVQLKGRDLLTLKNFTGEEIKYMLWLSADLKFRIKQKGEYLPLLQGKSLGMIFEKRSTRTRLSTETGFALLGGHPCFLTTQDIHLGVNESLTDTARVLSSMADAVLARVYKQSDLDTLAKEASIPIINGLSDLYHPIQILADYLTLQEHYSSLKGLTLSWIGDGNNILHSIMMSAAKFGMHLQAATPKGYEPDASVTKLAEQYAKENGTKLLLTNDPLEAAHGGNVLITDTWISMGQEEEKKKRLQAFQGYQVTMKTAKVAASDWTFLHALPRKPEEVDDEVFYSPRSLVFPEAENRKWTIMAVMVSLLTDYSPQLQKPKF
Measurement Type: Kd (nM)
Write the answer as a number in nM, unit excluded.

Q: Lookup: Kd / hOTC (human ornithine transcarbamylase) (Homo sapiens, UniProt P00480, C303A) / NC(=O)OP(=O)(O)O [CP, carbamoyl phosphate]
A: 190
